- test_system: rat NR1/NR2B receptor (Rattus norvegicus (Rat), UniProt P35439+Q00960)
- Sequence (Q00960 27-1482, other chains not shown): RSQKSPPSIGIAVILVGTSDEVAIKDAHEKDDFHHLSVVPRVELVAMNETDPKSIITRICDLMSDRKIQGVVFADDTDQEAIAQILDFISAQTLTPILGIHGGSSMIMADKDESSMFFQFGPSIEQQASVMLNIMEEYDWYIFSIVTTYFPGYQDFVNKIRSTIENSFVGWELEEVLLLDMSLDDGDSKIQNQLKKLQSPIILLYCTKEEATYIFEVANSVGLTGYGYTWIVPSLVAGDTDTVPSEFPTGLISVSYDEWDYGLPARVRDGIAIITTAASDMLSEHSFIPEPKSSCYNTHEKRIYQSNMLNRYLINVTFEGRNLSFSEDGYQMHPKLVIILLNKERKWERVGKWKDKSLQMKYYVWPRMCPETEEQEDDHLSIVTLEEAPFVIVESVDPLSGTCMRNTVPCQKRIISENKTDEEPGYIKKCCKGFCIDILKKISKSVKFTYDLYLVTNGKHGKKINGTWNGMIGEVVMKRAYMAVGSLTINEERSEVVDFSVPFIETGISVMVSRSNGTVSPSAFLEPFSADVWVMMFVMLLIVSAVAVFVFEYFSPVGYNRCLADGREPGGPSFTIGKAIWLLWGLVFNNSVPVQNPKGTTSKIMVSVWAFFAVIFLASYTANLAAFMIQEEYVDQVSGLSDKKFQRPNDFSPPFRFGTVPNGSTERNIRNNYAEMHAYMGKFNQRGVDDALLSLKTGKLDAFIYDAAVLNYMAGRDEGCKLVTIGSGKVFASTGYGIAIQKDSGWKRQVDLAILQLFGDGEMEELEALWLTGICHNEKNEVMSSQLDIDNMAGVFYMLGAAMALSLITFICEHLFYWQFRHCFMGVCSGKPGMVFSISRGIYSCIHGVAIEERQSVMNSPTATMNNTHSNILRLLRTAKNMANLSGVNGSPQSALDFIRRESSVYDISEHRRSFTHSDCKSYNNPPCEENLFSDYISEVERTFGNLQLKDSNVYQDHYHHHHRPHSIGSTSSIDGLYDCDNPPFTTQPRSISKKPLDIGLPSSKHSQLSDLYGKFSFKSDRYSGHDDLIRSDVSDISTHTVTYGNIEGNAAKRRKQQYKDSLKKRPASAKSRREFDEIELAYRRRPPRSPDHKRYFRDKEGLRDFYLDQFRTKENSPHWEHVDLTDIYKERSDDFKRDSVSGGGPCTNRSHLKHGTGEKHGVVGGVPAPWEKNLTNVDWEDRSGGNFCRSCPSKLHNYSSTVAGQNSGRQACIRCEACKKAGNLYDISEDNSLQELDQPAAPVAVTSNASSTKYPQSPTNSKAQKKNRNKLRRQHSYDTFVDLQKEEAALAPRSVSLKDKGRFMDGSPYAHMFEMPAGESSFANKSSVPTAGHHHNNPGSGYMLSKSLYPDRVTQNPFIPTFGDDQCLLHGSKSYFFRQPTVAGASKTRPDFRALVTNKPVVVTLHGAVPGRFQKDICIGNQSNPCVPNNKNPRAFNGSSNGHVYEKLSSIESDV
- assay_explanation: NR2B binding assay: inhibition of specific [3H]-Ifenprodil binding to the rat NR1/NR2B receptor
- condition_info: rat brain membranes, [3H]-Ifenprodil, Hill-plot 2-parameter model
quantity_name: pIC50
# pIC50: negative log10 of molar concentration; output just the value

> print(dat)
                                   compound  measured.number
1  OCCc1nccn1Cc1cn(-c2ccc(S(F)(F)(F)(F)F)cc2)nn1 [Example 118]             6.58

stdin: Value lookup for pIC50; key = FCCc1nccn1Cc1cn(-c2cc(F)cc(C(F)F)c2)nn1 [Example 104]
stdout: 6.73

----------
- test_system: rat NR1/NR2B receptor (Rattus norvegicus (Rat), UniProt P35439+Q00960)
- assay_explanation: NR2B binding assay: inhibition of specific [3H]-Ifenprodil binding to the rat NR1/NR2B receptor
- condition_info: 10 μM test compound; read-out: NR2B binding assay % INH @ 10 μM
quantity_name: inhibition at 10 µM (%)
Expressed in %, but write only the number.

stdin: Query for rat NR1/NR2B receptor (Rattus norvegicus (Rat), UniProt P35439+Q00960): what inhibition at 10 µM does the record show for Cc1nc(C2CCC2)nn1Cc1cn(-c2ccc(Cl)cc2)nn1 ?
stdout: -2.2

stdin: Next up: Cc1nc(C2CCC2)n(Cc2cn(-c3ccc(Cl)cc3)nn2)n1
stdout: 6.8

stdin: Next up: Clc1ccc(-n2cc(Cn3cnc(C4CCCC4)n3)nn2)cc1
stdout: 22.2

stdin: Next up: FC(F)(F)c1ncn(Cc2cn(-c3ccc(Cl)cc3)nn2)n1
stdout: 12.5

stdin: Next up: Clc1ccc(-n2cc(Cn3ncnc3C3CC3)nn2)cc1
stdout: 32.6

stdin: Next up: Cc1nc(CO)n(Cc2cn(-c3ccccc3)nn2)n1
stdout: -8.4

----------
- test_system: rat NR1/NR2B receptor (Rattus norvegicus (Rat), UniProt P35439+Q00960)
- assay_explanation: NR2B binding assay: inhibition of specific [3H]-Ifenprodil binding to the rat NR1/NR2B receptor
- condition_info: 1 μM test compound; read-out: NR2B binding assay % INH @ 1 μM
We use 10% as the dividing line for inhibition at 1 µM: on or above the line is 1.0, below is 0.0.

> print(dat)
                                   compound  class.assignment
1  Cc1nc(C2CCC2)n(Cc2cn(-c3ccc(Cl)cc3)nn2)n1 [Example 21]               0.0
2  Cc1nc(C)n(Cc2cn(-c3ccc(Cl)cc3)nn2)n1 [Example 1]               1.0
3  Cc1ccc(C(=O)c2nccn2Cc2cn(-c3ccc(Cl)cc3)nn2)cc1 [Example 116]               0.0

stdin: Entry CCCc1ncn(Cc2cn(-c3ccc(Cl)cc3)nn2)n1 [Example 3] : is its inhibition at 1 µM no less than 10%?
stdout: 1.0

stdin: Next up: Cc1nc(C)n(Cc2cn(-c3ccccc3)nn2)n1 [Example 46]
stdout: 0.0

stdin: Next up: CCc1ncn(Cc2cn(-c3ccc(Cl)cc3)nn2)n1 [Example 6]
stdout: 1.0

stdin: Next up: CCc1ncnn1Cc1cn(-c2ccc(Cl)cc2)nn1 [Example 5]
stdout: 0.0

stdin: Next up: Clc1ccc(-n2cc(Cn3ncnc3C3CCC3)nn2)cc1 [Example 11]
stdout: 0.0

----------
- test_system: rat NR1/NR2B receptor (Rattus norvegicus (Rat), UniProt P35439+Q00960)
- assay_explanation: NR2B binding assay: inhibition of specific [3H]-Ifenprodil binding to the rat NR1/NR2B receptor
- condition_info: 10 μM test compound; read-out: NR2B binding assay % INH @ 10 μM
- Experimental: Inhibition of Specific Binding to the Rat NR1/NR2B Receptor Male Wistar rats (180 to 200 g) were killed by suffocation in a CO2 chamber for two minutes. […] The incubation was terminated by filtration of the membrane preparations using Filtermat B (Pharmacia, Uppsala Sweden) and a Micro Cell Harvester (Skatron, Lier, Norway). The Filtermat B had been presoaked with 1% polyethylene imine and carefully washed with 50 mM Tris/HCl-buffer pH 7.7 after the filtration to separate free and bound radioactivity. […]
Here, each record is paired with measured inhibition at 10 µM data.
Expressed in %, but write only the number.

Reference set, count: 2
> print(dat)
                              smiles.code        quantity.name  measured.number
1     CCCc1ncn(Cc2cn(-c3ccc(Cl)cc3)nn2)n1  inhibition at 10 µM              4.5
2  CC(C)(C)c1nccn1Cc1cn(-c2ccc(Cl)cc2)nn1  inhibition at 10 µM             53.2

Shift focus to the following entry.
stdin: Value lookup for inhibition at 10 µM; key = CCc1ncnn1Cc1cn(-c2ccc(Cl)cc2)nn1
stdout: 30.1

----------
- test_system: rat NR1/NR2B receptor (Rattus norvegicus (Rat), UniProt P35439+Q00960)
- assay_explanation: NR2B binding assay: inhibition of specific [3H]-Ifenprodil binding to the rat NR1/NR2B receptor
- condition_info: 1 μM test compound; read-out: NR2B binding assay % INH @ 1 μM
- Method: Inhibition of Specific Binding to the Rat NR1/NR2B Receptor Male Wistar rats (180 to 200 g) were killed by suffocation in a CO2 chamber for two minutes. […] The incubation was terminated by filtration of the membrane preparations using Filtermat B (Pharmacia, Uppsala Sweden) and a Micro Cell Harvester (Skatron, Lier, Norway). The Filtermat B had been presoaked with 1% polyethylene imine and carefully washed with 50 mM Tris/HCl-buffer pH 7.7 after the filtration to separate free and bound radioactivity. […]
quantity_name: inhibition at 1 µM (%)
Expressed in %, but write only the number.

Reference set, count: 7
> print(dat)
                                smiles.code  measured.number
1  Clc1ccc(-n2cc(Cn3nc(C4CC4)nc3C3CC3)nn2)cc1               -6
2          Clc1ccc(-n2cc(Cn3ccnc3Cl)nn2)cc1             28.7
3   Clc1ccc(-n2cc(Cn3cnc(C4CCCC4)n3)nn2)cc1              6.4
4    CC(C)(C)c1nccn1Cc1cn(-c2ccc(Cl)cc2)nn1             12.7
5           Cc1nncn1Cc1cn(-c2ccc(Cl)cc2)nn1              3.7
6    Clc1ccc(-n2cc(Cn3cnc(C4CCC4)n3)nn2)cc1            -0.66
7         CCCc1ncnn1Cc1cn(-c2ccc(Cl)cc2)nn1             23.9

stdin: Value lookup for inhibition at 1 µM; key = Cc1nc(C2CCC2)nn1Cc1cn(-c2ccc(Cl)cc2)nn1
stdout: 14.5

The reported measurements were obtained from patent US10323021B2.
